System: Candida albicans ATCC 90028
Readings of MIC for the listed compounds

compound: COc1cc(NC(C)CCCNC(=O)NC(C(=O)N(C)C(c2ccccc2)c2ccccc2)c2ccccc2)c2ncccc2c1 (centres unmarked) [Compound 5b]
MIC: > 100 µg/mL
//
compound: COc1cc(NC(C)CCCNC(=O)NC(C(=O)NC(c2ccccc2)c2ccccc2)c2ccc(Cl)cc2)c2ncccc2c1 (centres unmarked) [Compound 5d]
MIC: > 100 µg/mL
//
compound: COc1cc(NC(C)CCCNC(=O)NC(C(=O)NC(c2ccccc2)c2ccc(Cl)cc2)c2ccccc2)c2ncccc2c1 (centres unmarked) [Compound 5c]
MIC: > 100 µg/mL
//
compound: COc1cc(NC(C)CCCNC(=O)NC(CC(C)C)C(=O)NC(c2ccccc2)c2ccccc2)c2ncccc2c1 (centres unmarked) [Compound 5a]
MIC: > 100 µg/mL
//
compound: C[C@@H]1[C@H](O)[C@@H](C)/C=C/C=C/C=C/C=C/C=C/C=C/C=C/[C@H](O[C@@H]2O[C@H](C)[C@@H](O)[C@H](N)[C@@H]2O)C[C@@H]2O[C@](O)(C[C@@H](O)C[C@@H](O)[C@H](O)CC[C@@H](O)C[C@@H](O)CC(=O)O[C@H]1C)C[C@H](O)[C@H]2C(=O)O [Amph, amphotericin B, reference compound]
MIC: 0.5 µg/mL

====

experiment description: In vitro haemolytic activity
Type: cell-based
applied conditions: male, pH 7, 100 μg/ml, 4% human erythrocytes, read-out: Haemolysis (%)
measurement type: hemolysis at 1 h, 100 µg/ml (%)

compound: COc1cc(NC(C)CCCN)c2ncccc2c1 (stereo not shown) [PQ, reference compound]
number: 2.53

====

Overview of reported hemolysis at 1 h, 200 µg/ml across a group of molecules:
experiment description: In vitro haemolytic activity
Type: cell-based
applied conditions: male, 4% (v/v) fresh human erythrocyte suspension, pH 7, 200 μg/ml, 4% human erythrocytes, read-out: Haemolysis (%)

molecule: COc1cc(NC(C)CCCNC(=O)NC(C(=O)NC(c2ccccc2)c2ccccc2)c2ccc(Cl)cc2)c2ncccc2c1 (stereo not drawn)
hemolysis at 1 h, 200 µg/ml (%): 3.07

molecule: COc1cc(NC(C)CCCNC(=O)NC(C(=O)NC(c2ccccc2)c2ccc(Cl)cc2)c2ccc(Cl)cc2)c2ncccc2c1 (stereo not drawn)
hemolysis at 1 h, 200 µg/ml (%): 3.7

molecule: COc1cc(NC(C)CCCNC(=O)NC(C(=O)NC(c2ccccc2)c2ccc(Cl)cc2)c2ccccc2)c2ncccc2c1 (stereo not drawn)
hemolysis at 1 h, 200 µg/ml (%): 4.89

molecule: COc1cc(NC(C)CCCNC(=O)NC(CC(C)C)C(=O)NC(c2ccccc2)c2ccccc2)c2ncccc2c1 (stereo not drawn)
hemolysis at 1 h, 200 µg/ml (%): 4.24

molecule: COc1ccc(C(=NNC(=O)C(NC(=O)NCCCC(C)Nc2cc(OC)cc3cccnc23)c2ccc(Cl)cc2)c2ccccc2)cc1 (stereo not drawn)
hemolysis at 1 h, 200 µg/ml (%): 4.03

molecule: COc1cc(NC(C)CCCNC(=O)NC(C(=O)N(C)C(c2ccccc2)c2ccccc2)c2ccccc2)c2ncccc2c1 (stereo not drawn)
hemolysis at 1 h, 200 µg/ml (%): 4.04

====

Test system: Escherichia coli ATCC 10536
MIC values, listed per item
measurement type: MIC (µg/mL)

compound: COc1ccc(C(=NNC(=O)C(NC(=O)NCCCC(C)Nc2cc(OC)cc3cccnc23)c2ccc(Cl)cc2)c2ccccc2)cc1 (stereo not shown)
value unit: µg/mL
comparator: >
number: 100
--
compound: COc1cc(NC(C)CCCNC(=O)NC(C(=O)NC(c2ccccc2)c2ccc(Cl)cc2)c2ccc(Cl)cc2)c2ncccc2c1 (stereo not shown)
value unit: µg/mL
comparator: =
number: 45
--
compound: COc1cc(NC(C)CCCNC(=O)NC(C(=O)NC(c2ccccc2)c2ccc(Cl)cc2)c2ccccc2)c2ncccc2c1 (stereo not shown)
value unit: µg/mL
comparator: =
number: 60
--
compound: CN(C)[C@@H]1C(O)=C(C(N)=O)C(=O)[C@@]2(O)C(O)=C3C(=O)c4c(O)cccc4[C@@](C)(O)[C@H]3C[C@@H]12 [TC, tetracycline, reference compound]
value unit: µg/mL
comparator: =
number: 2.5

====

Below is a list of entries, each paired with its recorded DPPH-reducing ability 60 min value.
experiment description: Interaction with 1,1-diphenyl-2-picrylhydrazyl (DPPH)
applied conditions: 100 μΜ, 60 min
Marks after values point to notes of the source that are not given here.

compound: COc1cc(NC(C)CCCNC(=O)NC(C(=O)NC(c2ccccc2)c2ccc(Cl)cc2)c2ccc(Cl)cc2)c2ncccc2c1 (stereo not shown) [Compound 5e]
DPPH-reducing ability 60 min: 1^b %

compound: COc1cc(NC(C)CCCNC(=O)NC(C(=O)NC(c2ccccc2)c2ccccc2)c2ccc(Cl)cc2)c2ncccc2c1 (stereo not shown) [Compound 5d]
DPPH-reducing ability 60 min: 2^b %

compound: COc1cc(NC(C)CCCNC(=O)NC(C(=O)N(C)C(c2ccccc2)c2ccccc2)c2ccccc2)c2ncccc2c1 (stereo not shown) [Compound 5b]
DPPH-reducing ability 60 min: 5^b %

compound: COc1cc(NC(C)CCCNC(=O)NC(C(=O)NC(c2ccccc2)c2ccc(Cl)cc2)c2ccccc2)c2ncccc2c1 (stereo not shown) [Compound 5c]
DPPH-reducing ability 60 min: 2^b %

compound: COc1ccc(C(=NNC(=O)C(NC(=O)NCCCC(C)Nc2cc(OC)cc3cccnc23)c2ccc(Cl)cc2)c2ccccc2)cc1 (stereo not shown) [Compound 5f]
DPPH-reducing ability 60 min: 2^b %

compound: CC(Cc1ccc(O)c(O)c1)C(C)Cc1ccc(O)c(O)c1 (stereo not shown) [NDGA, nordihydroguaiaretic acid, reference compound]
DPPH-reducing ability 60 min: 91.0 ± 1.7%

compound: COc1cc(NC(C)CCCNC(=O)NC(CC(C)C)C(=O)NC(c2ccccc2)c2ccccc2)c2ncccc2c1 (stereo not shown) [Compound 5a]
DPPH-reducing ability 60 min: 5^b %

====

Below, each entry is listed with its recorded MIC.
System: Candida albicans ATCC 90028

compound: COc1cc(NC(C)CCCNC(=O)NC(C(=O)NC(c2ccccc2)c2ccc(Cl)cc2)c2ccc(Cl)cc2)c2ncccc2c1 (stereo not drawn)
MIC: > 100 µg/mL

compound: COc1cc(NC(C)CCCN)c2ncccc2c1 (stereo not drawn) [PQ, reference compound]
MIC: > 100 µg/mL

compound: COc1ccc(C(=NNC(=O)C(NC(=O)NCCCC(C)Nc2cc(OC)cc3cccnc23)c2ccc(Cl)cc2)c2ccccc2)cc1 (stereo not drawn)
MIC: > 100 µg/mL

====

System: Staphylococcus aureus ATCC 25213 | Read-out: MIC

molecule: COc1ccc(C(=NNC(=O)C(NC(=O)NCCCC(C)Nc2cc(OC)cc3cccnc23)c2ccc(Cl)cc2)c2ccccc2)cc1 (stereo not drawn)
MIC: > 100 µg/mL

molecule: COc1cc(NC(C)CCCNC(=O)NC(C(=O)NC(c2ccccc2)c2ccc(Cl)cc2)c2ccccc2)c2ncccc2c1 (stereo not drawn)
MIC: > 100 µg/mL

molecule: COc1cc(NC(C)CCCNC(=O)NC(C(=O)NC(c2ccccc2)c2ccc(Cl)cc2)c2ccc(Cl)cc2)c2ncccc2c1 (stereo not drawn)
MIC: > 100 µg/mL

====

System: Escherichia coli ATCC 10536
experiment description: Minimum biofilm eradication assay
Type: cell-based
Catalogue of MBEC values

molecule: COc1cc(NC(C)CCCNC(=O)NC(C(=O)NC(c2ccccc2)c2ccc(Cl)cc2)c2ccc(Cl)cc2)c2ncccc2c1 (stereo not drawn)
MBEC, µg/mL: 50

molecule: COc1ccc(C(=NNC(=O)C(NC(=O)NCCCC(C)Nc2cc(OC)cc3cccnc23)c2ccc(Cl)cc2)c2ccccc2)cc1 (stereo not drawn)
MBEC, µg/mL: 12.5

molecule: COc1cc(NC(C)CCCNC(=O)NC(C(=O)NC(c2ccccc2)c2ccccc2)c2ccc(Cl)cc2)c2ncccc2c1 (stereo not drawn)
MBEC, µg/mL: 25

molecule: COc1cc(NC(C)CCCNC(=O)NC(C(=O)N(C)C(c2ccccc2)c2ccccc2)c2ccccc2)c2ncccc2c1 (stereo not drawn)
MBEC, µg/mL: 12.5

molecule: COc1cc(NC(C)CCCNC(=O)NC(C(=O)NC(c2ccccc2)c2ccc(Cl)cc2)c2ccccc2)c2ncccc2c1 (stereo not drawn)
MBEC, µg/mL: 6.25

molecule: COc1cc(NC(C)CCCN)c2ncccc2c1 (stereo not drawn) [PQ, reference compound]
MBEC, µg/mL: 25
